- experiment: Dissociation of complex over time monitored by 1H NMR
- Format: physicochemical
- setupConditions: 10 mM complex, 100 mM NaCl, 0.40 mM Na2HPO4, 25 mM K2CO3, pD 7.5-7.9, 12 hrs at 37° C.
measurementKind: dissociation in presence of phosphate and carbonate (in words)

INSERT INTO assay_data (compound, value) VALUES
  ('NC(=O)CN1CCCN(CC(N)=O)CCN(CC(N)=O)CCCN(CC(N)=O)CC1.[Co+2] [[Co(CCRM)]^2+]', 'doesn''t dissociate'),
  ('NC(=O)CN1CCN(CC(N)=O)CCN(CC(N)=O)CCN(CC(N)=O)CC1.[Co+2] [[Co(TCMC)]^2+]', 'doesn''t dissociate'),
  ('NC(=O)CN1CCN(CC(N)=O)CCN(CC(N)=O)CC1.[Co+2] [[Co(TCMT)]^2+]', 'doesn''t dissociate'),
  ('NC(=O)CN1CCOCCOCCN(CC(N)=O)CCOCC1.[Co+2] [[Co(NOPE)]^2+]', 'doesn''t dissociate');
